Value source: the supplement of paper PMC10307832

Test system: SW 1573
assayComment: relative viability (nuclei count vs DMSO), 5 days (fraction); higher = more cells survive
statedConditions: first compound 0.04 µM
Entries whose relative viability is below 0.8 take fulfilled; entries at or above 0.8 take not fulfilled.

• COc1cc(N2CCC(C(N)=O)CC2)ccc1Nc1nc(N)c(Cl)c(Nc2ccccc2S(=O)(=O)C(C)C)n1 [HG-5-88-01] + CS(=O)(=O)N1CCN(Cc2cc3nc(-c4cccc5[nH]ncc45)nc(N4CCOCC4)c3s2)CC1 [Pictilisib] (partner 1 µM) = fulfilled
• C[C@@H]1CN(CC(=O)Nc2ccc3c(c2)Cc2cccc(-c4cc(=O)cc(N5CCOCC5)o4)c2S3)C[C@H](C)O1 + Nc1ncn([C@H]2C[C@H](O)[C@@H](CO)O2)c(=O)n1 [Decitabine] (partner 2 µM) = fulfilled

Hello, I'm reviewing records and need to know if relative viability of C[C@@H]1CN(CC(=O)Nc2ccc3c(c2)Cc2cccc(-c4cc(=O)cc(N5CCOCC5)o4)c2S3)C[C@H](C)O1 + Nc1nc2[nH]cc(CCc3ccc(C(=O)N[C@@H](CCC(=O)O)C(=O)O)cc3)c2c(=O)[nH]1 [Pemetrexed] (partner 0.2 µM) is below 0.8. Could you check?
not fulfilled

Hello, I'm reviewing records and need to know if relative viability of C[C@@H]1CN(CC(=O)Nc2ccc3c(c2)Cc2cccc(-c4cc(=O)cc(N5CCOCC5)o4)c2S3)C[C@H](C)O1 + CC(=O)Nc1cccc(-n2c(=O)n(C3CC3)c(=O)c3c(Nc4ccc(I)cc4F)n(C)c(=O)c(C)c32)c1 [Trametinib] (partner 0.02 µM) is below 0.8. Could you check?
fulfilled

Hello, I'm reviewing records and need to know if relative viability of COc1cc(N2CCC(C(N)=O)CC2)ccc1Nc1nc(N)c(Cl)c(Nc2ccccc2S(=O)(=O)C(C)C)n1 [HG-5-88-01] + COc1cccc2cc(-c3nc([C@H]4CC[C@H](C(=O)O)CC4)n4ncnc(N)c34)[nH]c12 [OSI-027] (partner 0.5 µM) is below 0.8. Could you check?
fulfilled

Hello, I'm reviewing records and need to know if relative viability of C[C@@H]1CN(CC(=O)Nc2ccc3c(c2)Cc2cccc(-c4cc(=O)cc(N5CCOCC5)o4)c2S3)C[C@H](C)O1 + Cc1nc(NC(=O)N2CCC[C@H]2C(N)=O)sc1-c1ccnc(C(C)(C)C(F)(F)F)c1 [Alpelisib] (partner 2 µM) is below 0.8. Could you check?
not fulfilled

Hello, I'm reviewing records and need to know if relative viability of COc1cc(N2CCC(C(N)=O)CC2)ccc1Nc1nc(N)c(Cl)c(Nc2ccccc2S(=O)(=O)C(C)C)n1 [HG-5-88-01] + O=C(CCCCCCC(=O)Nc1ccccc1)NO [Vorinostat] (partner 1 µM) is below 0.8. Could you check?
fulfilled

----------
Test system: NCI-H727
assayComment: relative viability (nuclei count vs DMSO), 5 days (fraction); higher = more cells survive
statedConditions: first compound 0.1265 µM
Catalogue of relative viability readings, one per entry.
Form: value (number only, do not type unit).

State the recorded relative viability for this entry: Clc1ccc(Nc2nnc(Cc3ccncc3)c3ccccc23)cc1 [Vatalanib] + Cc1nc(Nc2ncc(C(=O)Nc3c(C)cccc3Cl)s2)cc(N2CCN(CCO)CC2)n1 [Dasatinib] (partner 0.075 µM)
0.37

State the recorded relative viability for this entry: C[C@@H]1CN(CC(=O)Nc2ccc3c(c2)Cc2cccc(-c4cc(=O)cc(N5CCOCC5)o4)c2S3)C[C@H](C)O1 + O=C(c1cc(Cc2n[nH]c(=O)c3ccccc23)ccc1F)N1CCN(C(=O)C2CC2)CC1 [Olaparib] (partner 8 µM)
0.77

State the recorded relative viability for this entry: C[C@@H]1CN(CC(=O)Nc2ccc3c(c2)Cc2cccc(-c4cc(=O)cc(N5CCOCC5)o4)c2S3)C[C@H](C)O1 + CS(=O)(=O)CCNCc1ccc(-c2ccc3ncnc(Nc4ccc(OCc5cccc(F)c5)c(Cl)c4)c3c2)o1 [Lapatinib] (partner 2 µM)
0.801

----------
Tested on: NCI-H2085
assayComment: relative viability (nuclei count vs DMSO), 5 days (fraction); higher = more cells survive
statedConditions: first compound 1.265 µM
Catalogue of relative viability readings, one per entry.
Form: value (number only, do not type unit).

State the recorded relative viability for this entry: Clc1ccc(Nc2nnc(Cc3ccncc3)c3ccccc23)cc1 [Vatalanib] + CC(=O)c1c(C)c2cnc(Nc3ccc(N4CCNCC4)cn3)nc2n(C2CCCC2)c1=O [Palbociclib] (partner 0.5 µM)
0.433

State the recorded relative viability for this entry: COc1cc(N2CCC(C(N)=O)CC2)ccc1Nc1nc(N)c(Cl)c(Nc2ccccc2S(=O)(=O)C(C)C)n1 [HG-5-88-01] + COc1cc2c(Oc3ccc(NC(=O)C4(C(=O)Nc5ccc(F)cc5)CC4)cc3F)ccnc2cc1OCCCN1CCOCC1 [Foretinib] (partner 0.25 µM)
0.704

State the recorded relative viability for this entry: COc1cc(N2CCC(C(N)=O)CC2)ccc1Nc1nc(N)c(Cl)c(Nc2ccccc2S(=O)(=O)C(C)C)n1 [HG-5-88-01] + CC(=O)c1c(C)c2cnc(Nc3ccc(N4CCNCC4)cn3)nc2n(C2CCCC2)c1=O [Palbociclib] (partner 0.5 µM)
0.465

State the recorded relative viability for this entry: COc1cc(N2CCC(C(N)=O)CC2)ccc1Nc1nc(N)c(Cl)c(Nc2ccccc2S(=O)(=O)C(C)C)n1 [HG-5-88-01] + O=C(c1cc(Cc2n[nH]c(=O)c3ccccc23)ccc1F)N1CCN(C(=O)C2CC2)CC1 [Olaparib] (partner 8 µM)
0.765

----------
Test system: LCLC-97TM1
assayComment: relative viability (nuclei count vs DMSO), 5 days (fraction); higher = more cells survive
statedConditions: first compound 1.265 µM
recordedEndpoint: relative viability
Form: value (number only, do not type unit).

• COc1cc(N2CCC(C(N)=O)CC2)ccc1Nc1nc(N)c(Cl)c(Nc2ccccc2S(=O)(=O)C(C)C)n1 [HG-5-88-01] + O=C(c1cc(Cc2n[nH]c(=O)c3ccccc23)ccc1F)N1CCN(C(=O)C2CC2)CC1 [Olaparib] (partner 8 µM) = 0.26

State the recorded relative viability for this entry: COc1cc(N2CCC(C(N)=O)CC2)ccc1Nc1nc(N)c(Cl)c(Nc2ccccc2S(=O)(=O)C(C)C)n1 [HG-5-88-01] + O=C(CCCCCCC(=O)Nc1ccccc1)NO [Vorinostat] (partner 1 µM)
0.645

----------
System: NCI-H2228
assayComment: relative viability (nuclei count vs DMSO), 5 days (fraction); higher = more cells survive
statedConditions: first compound 0.04 µM
Entries whose relative viability is below 0.6 take True; entries at or above 0.6 take False.

• Clc1ccc(Nc2nnc(Cc3ccncc3)c3ccccc23)cc1 [Vatalanib] + O=C(c1cc(Cc2n[nH]c(=O)c3ccccc23)ccc1F)N1CCN(C(=O)C2CC2)CC1 [Olaparib] (partner 8 µM) = False
• Clc1ccc(Nc2nnc(Cc3ccncc3)c3ccccc23)cc1 [Vatalanib] + Cc1cc(Nc2cc(N3CCN(C)CC3)nc(Sc3ccc(NC(=O)C4CC4)cc3)n2)n[nH]1 [Tozasertib] (partner 0.1 µM) = True
• C[C@@H]1CN(CC(=O)Nc2ccc3c(c2)Cc2cccc(-c4cc(=O)cc(N5CCOCC5)o4)c2S3)C[C@H](C)O1 + COc1cc2c(Oc3ccc(NC(=O)C4(C(=O)Nc5ccc(F)cc5)CC4)cc3F)ccnc2cc1OCCCN1CCOCC1 [Foretinib] (partner 0.25 µM) = False

Shift focus to the following entry.
Hello, I'm reviewing records and need to know if relative viability of COc1cc(N2CCC(C(N)=O)CC2)ccc1Nc1nc(N)c(Cl)c(Nc2ccccc2S(=O)(=O)C(C)C)n1 [HG-5-88-01] + CC(=O)c1c(C)c2cnc(Nc3ccc(N4CCNCC4)cn3)nc2n(C2CCCC2)c1=O [Palbociclib] (partner 0.5 µM) is below 0.6. Could you check?
True

----------
Tested on: NCI-H1915
assayComment: relative viability (nuclei count vs DMSO), 5 days (fraction); higher = more cells survive
statedConditions: first compound 0.3162 µM
Entries whose relative viability is below 0.6 take Condition met; entries at or above 0.6 take Condition not met.

* CC(C)Oc1cc(Nc2nc(N[C@@H](C)c3ccc(F)cn3)ncc2Cl)n[nH]1 [AZ23] + CC(=O)c1c(C)c2cnc(Nc3ccc(N4CCNCC4)cn3)nc2n(C2CCCC2)c1=O [Palbociclib] (partner 0.5 µM) | Condition met

Hello, I'm reviewing records and need to know if relative viability of CC(C)Oc1cc(Nc2nc(N[C@@H](C)c3ccc(F)cn3)ncc2Cl)n[nH]1 [AZ23] + Cc1nc(Nc2ncc(C(=O)Nc3c(C)cccc3Cl)s2)cc(N2CCN(CCO)CC2)n1 [Dasatinib] (partner 0.075 µM) is below 0.6. Could you check?
Condition met

Hello, I'm reviewing records and need to know if relative viability of CC(C)Oc1cc(Nc2nc(N[C@@H](C)c3ccc(F)cn3)ncc2Cl)n[nH]1 [AZ23] + CS(=O)(=O)CCNCc1ccc(-c2ccc3ncnc(Nc4ccc(OCc5cccc(F)c5)c(Cl)c4)c3c2)o1 [Lapatinib] (partner 2 µM) is below 0.6. Could you check?
Condition not met

Hello, I'm reviewing records and need to know if relative viability of CC(C)Oc1cc(Nc2nc(N[C@@H](C)c3ccc(F)cn3)ncc2Cl)n[nH]1 [AZ23] + Cc1cc(Nc2cc(N3CCN(C)CC3)nc(Sc3ccc(NC(=O)C4CC4)cc3)n2)n[nH]1 [Tozasertib] (partner 0.1 µM) is below 0.6. Could you check?
Condition met

Hello, I'm reviewing records and need to know if relative viability of CC(C)Oc1cc(Nc2nc(N[C@@H](C)c3ccc(F)cn3)ncc2Cl)n[nH]1 [AZ23] + O=C(CCCCCCC(=O)Nc1ccccc1)NO [Vorinostat] (partner 1 µM) is below 0.6. Could you check?
Condition met

Hello, I'm reviewing records and need to know if relative viability of CC(C)Oc1cc(Nc2nc(N[C@@H](C)c3ccc(F)cn3)ncc2Cl)n[nH]1 [AZ23] + C[C@]1(O)C[C@@H](c2nc(-c3ccc4ccc(-c5ccccc5)nc4c3)c3c(N)nccn32)C1 [Linsitinib] (partner 1 µM) is below 0.6. Could you check?
Condition not met

Hello, I'm reviewing records and need to know if relative viability of CC(C)Oc1cc(Nc2nc(N[C@@H](C)c3ccc(F)cn3)ncc2Cl)n[nH]1 [AZ23] + C[C@@H](Oc1cc(-c2cnn(C3CCNCC3)c2)cnc1N)c1c(Cl)ccc(F)c1Cl [Crizotinib] (partner 1 µM) is below 0.6. Could you check?
Condition not met
